Below, each of the compounds is paired with its reported pKi value.
Target: UniProt:P00734
pKi: −log10 of the molar value. Where a SMILES comes first, the peptide text is derived from it. Bridges are numbered along the chain shown (N, C = ends). [ ]: non-standard residue; d: D form. Ala(1-amidino-4-piperidyl) = N=C(N)N1CCC(C[C@H](N)C(=O)O)CC1
assay.metric: pKi

1) CC(C)C[C@@H]1NC(=O)[C@H](Cc2ccc(O)cc2)NC(=O)[C@H](CCCNC(=N)N)NC(=O)[C@H](CO)NC(=O)[C@H](Cc2ccc(O)cc2)NC(=O)[C@H](C)NC(=O)[C@@H]2CCCN2C(=O)[C@@H](N)CSSC[C@@H](C(=O)O)NC(=O)[C@H](CC(=O)O)NC1=O (H-CPAYSRYLDC-OH; disulfide 1-10)	< 3.00
2) CC(C)C[C@@H]1NC(=O)[C@H](C)NC(=O)[C@H](CC2CCN(C(=N)N)CC2)NC(=O)[C@H](Cc2ccccc2)NC(=O)[C@H](CCCNC(=N)N)NC(=O)[C@H](C)NC(=O)[C@@H]2CCCN2C(=O)[C@@H](N)CSSC[C@@H](C(=O)O)NC(=O)[C@H](Cc2c[nH]c3ccccc23)NC1=O (H-CPARF[Ala(1-amidino-4-piperidyl)]ALWC-OH; disulfide 1-10)	< 3.00
3) CC(C)C[C@@H]1NC(=O)[C@H](C)NC(=O)[C@H](CC2CCN(C(=N)N)CC2)NC(=O)[C@H](Cc2ccccc2)NC(=O)[C@H](CCCNC(=N)N)NC(=O)[C@H](CCCCN)NC(=O)[C@@H]2CCCN2C(=O)[C@@H](N)CSSC[C@@H](C(=O)O)NC(=O)[C@H](Cc2ccccc2)NC1=O (H-CPKRF[Ala(1-amidino-4-piperidyl)]ALFC-OH; disulfide 1-10)	< 3.00

----------
Biological target: Vitamin K-dependent protein C (Homo sapiens)
Sequence (P04070 43-197 limits assumed): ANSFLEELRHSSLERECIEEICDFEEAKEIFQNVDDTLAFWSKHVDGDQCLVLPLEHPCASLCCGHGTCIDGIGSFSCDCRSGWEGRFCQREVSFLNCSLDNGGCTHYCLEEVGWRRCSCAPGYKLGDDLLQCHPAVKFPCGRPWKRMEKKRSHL
Sequence (P04070 212-461 limits assumed): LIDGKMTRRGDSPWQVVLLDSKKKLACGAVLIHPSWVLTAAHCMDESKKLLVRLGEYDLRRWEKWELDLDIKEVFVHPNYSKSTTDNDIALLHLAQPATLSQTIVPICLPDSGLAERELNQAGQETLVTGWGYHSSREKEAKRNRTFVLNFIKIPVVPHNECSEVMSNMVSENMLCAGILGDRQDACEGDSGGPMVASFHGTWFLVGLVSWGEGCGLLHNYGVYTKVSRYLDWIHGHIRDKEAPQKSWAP
Assay: Inhibition of human activated protein C after 15 mins using H-D-Ile-Pro-Arg-p-nitroanilide as substrate
Where a SMILES comes first, the peptide text is derived from it. Bridges are numbered along the chain shown (N, C = ends). [ ]: non-standard residue; d: D form. Ala(1-amidino-4-piperidyl) = N=C(N)N1CCC(C[C@H](N)C(=O)O)CC1
assay.metric: Ki

1. CC(C)C[C@@H]1NC(=O)[C@H](Cc2ccc(O)cc2)NC(=O)[C@H](CC2CCN(C(=N)N)CC2)NC(=O)[C@H](CO)NC(=O)[C@H](Cc2ccc(O)cc2)NC(=O)[C@H](C)NC(=O)[C@@H]2CCCN2C(=O)[C@@H](N)CSSC[C@@H](C(=O)O)NC(=O)[C@H](CC(=O)O)NC1=O (H-CPAYS[Ala(1-amidino-4-piperidyl)]YLDC-OH; disulfide 1-10)	> 1000 µM
2. CC(C)C[C@@H]1NC(=O)[C@H](C)NC(=O)[C@H](CC2CCN(C(=N)N)CC2)NC(=O)[C@H](Cc2ccccc2)NC(=O)[C@H](CCCNC(=N)N)NC(=O)[C@H](C)NC(=O)[C@@H]2CCCN2C(=O)[C@@H](N)CSSC[C@@H](C(=O)O)NC(=O)[C@H](Cc2c[nH]c3ccccc23)NC1=O (H-CPARF[Ala(1-amidino-4-piperidyl)]ALWC-OH; disulfide 1-10)	> 1000 µM
3. CC(C)C[C@@H]1NC(=O)[C@H](C)NC(=O)[C@H](CC2CCN(C(=N)N)CC2)NC(=O)[C@H](Cc2ccccc2)NC(=O)[C@H](CCCNC(=N)N)NC(=O)[C@H](CCCCN)NC(=O)[C@@H]2CCCN2C(=O)[C@@H](N)CSSC[C@@H](C(=O)O)NC(=O)[C@H](Cc2ccccc2)NC1=O (H-CPKRF[Ala(1-amidino-4-piperidyl)]ALFC-OH; disulfide 1-10)	> 1000 µM
4. CC(C)C[C@@H]1NC(=O)[C@H](C)NC(=O)[C@H](CC2CCN(C(=N)N)CC2)NC(=O)[C@H](Cc2ccccc2)NC(=O)[C@H](CCCNC(=N)N)NC(=O)[C@H](C)NC(=O)[C@@H]2CCCN2C(=O)[C@@H](N)CSSC[C@@H](C(=O)O)NC(=O)[C@H](Cc2ccccc2)NC1=O (H-CPARF[Ala(1-amidino-4-piperidyl)]ALFC-OH; disulfide 1-10)	> 1000 µM
5. CC(C)C[C@@H]1NC(=O)[C@H](Cc2ccc(O)cc2)NC(=O)[C@H](CCCNC(=N)N)NC(=O)[C@H](CO)NC(=O)[C@H](Cc2ccc(O)cc2)NC(=O)[C@H](C)NC(=O)[C@@H]2CCCN2C(=O)[C@@H](N)CSSC[C@@H](C(=O)O)NC(=O)[C@H](CC(=O)O)NC1=O (H-CPAYSRYLDC-OH; disulfide 1-10)	> 1000 µM

Source: ChEMBL document CHEMBL3734702
